compounds and their reported pIC50
# study-system: KRAS G12D (Homo sapiens, UniProt P01116+P62937, G12D)
# Sequence (P01116 1-169 isoform P01116-2 G12D limits assumed): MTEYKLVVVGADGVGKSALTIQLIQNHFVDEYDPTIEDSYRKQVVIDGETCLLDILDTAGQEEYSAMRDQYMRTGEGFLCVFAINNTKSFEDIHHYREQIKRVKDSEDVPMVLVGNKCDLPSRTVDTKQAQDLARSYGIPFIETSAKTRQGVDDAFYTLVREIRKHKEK
# Sequence (P62937 whole entry): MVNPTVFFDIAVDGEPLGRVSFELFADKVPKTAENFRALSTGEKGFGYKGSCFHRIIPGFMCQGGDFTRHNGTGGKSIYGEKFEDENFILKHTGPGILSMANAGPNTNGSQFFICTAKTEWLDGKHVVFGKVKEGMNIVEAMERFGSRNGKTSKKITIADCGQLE
# test: Disruption of BRAF RBD interaction with Ras (FRET / MOA assay, with Cyclophilin A)
# Assay type: biochemical
# condition: read-out: KRAS G12D FRET data, IC50
pIC50: −log10 of the molar value.

compound	pIC50
CCn1c(-c2cnccc2COC)c2c3cc(ccc31)-c1cc(O)cc(c1)C[C@H](NC(=O)[C@H](C(C)C)N(C)C(=O)[C@H]1CCNC1)C(=O)N1CCC[C@H](N1)C(=O)OCC(C)(C)C2	6.00 to 7.00

Then this compound:
Inquiry: Please list pIC50 recorded for the compound CCn1c(-c2cccnc2[C@H](C)OC)c2c3cc(ccc31)-c1csc(n1)C[C@H](NC(=O)[C@H](C(C)C)N(C)C(=O)N1CC3(CC(N4CCOCC4)C3)C1)C(=O)N1CCC[C@H](N1)C(=O)OCC(C)(C)C2 (atropisomer, axis not shown)
Reply text: 5.00 to 6.00
